Tested on: RPMI-8226 leukemia
Method Summary: NCI-60 one-dose screen, 48 h (100 = growth as untreated, 0 = no growth, -100 = all killed)
Condition Summary: 10 µM unless noted
This is part of a sample that, as a whole, favours compounds with a hit. Of some 83,000 tested, about 20% had one in any assay.
A collection of compounds and their measured growth
Write the answer as a number in %, unit excluded.

In: Identify growth associated with the compound "N#Cc1ncc(-c2ccc(F)c(F)c2F)c(NC2CCCCCC2)n1"
Out: 63.1

In: Indicate its recorded growth; the compound in question is "Cc1ccc(OCCn2c(C)nn(-c3ccc(Cl)cc3)c2=O)cc1"
Out: 97.1

In: Tell me measured growth for COC1=CC(c2ccc[nH]2)=N/C1=C\c1[nH]c(C)c(C(=O)CCC(=O)Oc2ccc3c(c2)CCC2C3CC[C@]3(C)[C@@H](O)CC[C@@H]23)c1C (stereo not given in full) please.
Out: -12.2

Others:
In: Return reported growth. Input compound: "CCCCCC/C=C\CCCCCCCCOc1ccc(CCOP(=O)(O)OCC[N+](C)(C)C)cc1"
Out: 23.8

In: Complete the entry with growth for "CCCCCc1c(C)[nH]c(/C=c2\[nH]/c(=C3/C=c4ccccc4=N3)cc2OC)c1C"
Out: -49.5

In: Look up and report measured growth for this entry: "COc1cc(-c2cc(/C=C3\CCCCC3=O)[nH]n2)cc(OC)c1OC"
Out: 86.4

In: Give me measured growth, please, for this compound: "NC(=O)c1ccc2c(c1)OCO2"
Out: 106

In: Specify reported growth for the compound shown: Cc1cc2c(c(=O)o1)C(c1ccc(OC(=O)N3CCOCC3)cc1)C(C#N)=C(N)O2 (stereo not given)
Out: 109

In: Identify measured growth associated with "O=C(CSc1nc(-c2ccc(Cl)cc2)cn1-c1ccc(Cl)cc1)c1ccc(Br)cc1"
Out: 86.1

In: Entry "COc1ccc(N=C2NN=C(c3ccc(F)cc3)CS2)cc1OC" needs its growth filled in; supply it.
Out: 74.4
